Ref: PubChem BioAssay (NCI)

# Test system: MOLT-4 leukemia
# assay.method.text: NCI tumour cell line growth inhibition, 48 h
Property: GI50; scope: individual molecules

C[C@@H]1CC[C@H]2C(CN(C)CC3=C(C(F)(F)F)O[C@@H]4O[C@@]5(C)CC[C@H]6[C@H](C)CC[C@@H]3[C@@]46OO5)=C(C(F)(F)F)O[C@@H]3O[C@@]4(C)CC[C@@H]1[C@]32OO4 : > 25.4 µM
COC(=O)C1=C(C)NC(C)=C(C(=O)OC)C1c1ccccc1[N+](=O)[O-] : 78.2 µM
O=C(N/N=C\c1cc(Br)cc(Br)c1O)N/N=C/c1cc(Br)cc(Br)c1O : 2.14 µM

`CCn1c(-c2nonc2N)nc2c(C#CC(C)(C)O)ncc(OCC3CCNCC3)c21` has a reported GI50 of 8.3 µM

Item: `CN1CCN(Cc2ccc(NC(=O)c3cncc(C#Cc4cncc5[nH]ncc45)c3)cc2C(F)(F)F)CC1` | GI50: 0.773 µM

###

# Tested on: SNB-75 CNS
# assay.method.text: NCI tumour cell line growth inhibition, 48 h
measured.attribute: TGI

Would you please look over these solved cases?
O=C(O)CCC(NC(=O)/C(=C/c1ccccc1)NC(=O)c1ccccc1)C(=O)O (stereo not drawn) : > 100 µM
S=C1NC2=C(CCOc3c2ccc2ccccc32)C(c2ccc(Cl)cc2)N1 (stereo not drawn) : > 100 µM

Below: the item to evaluate.
Lab note: CCOC(=O)CCC(NC(=O)c1ccc(Nc2nc3cc(N)cc(N)c3nc2-c2ccccc2)cc1)C(=O)OCC (stereo not drawn) gave TGI of > 100 µM

###

# Tested on: RPMI-8226 leukemia
# assay.method.text: NCI tumour cell line growth inhibition, 48 h; in the data active = GI50 below about 0.43 µM; inactive = the rest
Result category, one only: active, inactive

CC(=O)O[C@H]1Cc2c([nH]c3ccccc23)[C@@H](c2ccc(Cl)cc2)N1C(=O)CCNC(C)(C)C : inactive
CCN(CC)c1ccc(/C=C2/NC(=O)NC2=O)cc1 : inactive
c1ccc(-c2nn(-c3ccccc3)[n+](-c3ccccc3-c3ccccc3)n2)cc1 : active

Let's switch to this molecule now.
*Q* Could you check what this test reported for O=C(c1nc2ccccc2[nH]1)C1C(c2cccc([N+](=O)[O-])c2)C2CC3CCCCC3N2[C@@]12C(=O)Nc1cc(Cl)ccc12 (some centres undefined) ?
*A* inactive

###

# System: SF-268 CNS
# assay.method.text: NCI tumour cell line growth inhibition, 48 h
Attribute: TGI

Example entries begin here.
CN(C)CC1CCCCCCCCCCC1=O (stereo unspecified) : > 100 µM
CCCCOc1nc2ccccc2cc1C1CNC(=O)c2ccccc2N1 (stereo unspecified) : > 48.5 µM
CO[C@H]1/C=C/C=C/C=C/C[C@H](OC(=O)[C@@H](C)NC(=O)C2CCCCC2)[C@H](C)[C@@H](O)/C(C)=C\CCC2=CC(=O)C=C(NC(=O)C1)C2=O : 1.01 µM
Nc1nc(Cl)cc(NCC2CC(O)(CO)C2)n1 (stereo unspecified) : > 100 µM
O=C(N(C1=CCCC1)N(c1ccccc1)c1ccccc1)C(F)(F)F : 48.7 µM

Noted TGI for `O=C(O)CNCc1c2ccccc2nc2ccccc12` , tested on SF-268 CNS: > 100 µM

Known value: SF-268 CNS TGI of the compound `O=C1/C(=C/c2ccccc2)CN(C(=O)Oc2ccccc2)C/C1=C\c1ccccc1` equals > 100 µM

# `CCN(CC)C(=O)c1ccc(C)c(N=NN(C)C)c1` with SF-268 CNS: TGI is > 100 µM

Known value: SF-268 CNS TGI of the compound `Cc1cnc2cc(Cl)ccc2c1SCC(=O)O` equals > 100 µM

SF-268 CNS TGI of `CN(C)CCSc1nccc(-c2ccc(-c3ccnc(SCCN(C)C)n3)s2)n1` is 22 µM
